Observed log10(Ki), system Estrogen receptor (Homo sapiens, UniProt P03372).
measuredAttribute: log10(Ki) (log10 of the value in nM)

- itemSmiles: "CN1CCN(c2nc(NCCc3ccc(O)cc3)nc(SCCCc3ccccc3)n2)CC1"
  reportedMeasurement: 2.43
- itemSmiles: "Oc1ccc(CCNc2nc(SCCOc3ccc(Cl)cc3)nc(N3CCNCC3)n2)cc1"
  reportedMeasurement: 2.76
- itemSmiles: "CN(CCCc1ccc(Cl)cc1)c1nc(NCCc2ccc(O)cc2)nc(N2CCN(Cc3ccncc3)CC2)n1"
  reportedMeasurement: 2.91
- itemSmiles: "CN(CCCc1ccccc1Cl)c1nc(NCCc2ccc(O)cc2)nc(N2CCNCC2)n1"
  reportedMeasurement: 2.83
- itemSmiles: "CN(CCCc1ccc2c(c1)OCO2)c1nc(NCCc2ccc(O)cc2)nc(N2CCNCC2)n1"
  reportedMeasurement: 2.75
- itemSmiles: "CN1CCN(c2nc(NCCCc3ccccc3)nc(NCCc3ccc(O)cc3)n2)CC1"
  reportedMeasurement: 3.51
- itemSmiles: "Oc1ccc(CCNc2nc(NCCCc3ccccc3)nc(N3CCNCC3)n2)cc1"
  reportedMeasurement: 3.14
- itemSmiles: "CN(CCCc1ccc(Cl)cc1)c1nc(NCCc2ccc(O)cc2)nc(N2CCN(C3CCCC3)CC2)n1"
  reportedMeasurement: 2.26

###

Observed EC50, system Estrogen receptor (Homo sapiens).

- itemSmiles: "CN(CCCc1ccc(F)cc1)c1nc(NCCc2ccc(O)cc2)nc(N2CCNCC2)n1"
  EC50 (nM): 200
- itemSmiles: "CN(CCCc1ccc(Cl)cc1)c1nc(NCCc2ccc(O)cc2)nc(N2CCNCC2)n1"
  EC50 (nM): 180
- itemSmiles: "CN(CCCc1ccc(Cl)cc1)c1nc(NCCc2ccc(O)cc2)nc(N2CCN(CCO)CC2)n1"
  EC50 (nM): 180

###

Observed pKi, system Estrogen receptor beta (Homo sapiens, UniProt Q92731).
pKi: −log10 of the molar value.

- molecule: "CN(CCCc1ccc(Cl)cc1)c1nc(NCCc2ccc(O)cc2)nc(N2CCN(C(=O)N3CCOCC3)CC2)n1"
  qual: "="
  pKi: 6.40
- molecule: "CN(CCCc1ccc(Cl)cc1)c1nc(NCCc2ccc(O)cc2)nc(N2CCN(CC(=O)c3ccccc3)CC2)n1"
  qual: "="
  pKi: 6.70
- molecule: "CN1CCN(c2nc(NCCCc3ccccc3)nc(NC3CCc4ccc(O)cc4C3)n2)CC1 (centres undefined)"
  qual: "<"
  pKi: 5.00
- molecule: "CN(CCCc1ccc2c(c1)OCO2)c1nc(NCCc2ccc(O)cc2)nc(N2CCNCC2)n1"
  qual: "="
  pKi: 7.52
- molecule: "CN(CCCc1ccc(Cl)cc1)c1nc(NCCc2ccc(O)cc2)nc(N2CCN(S(=O)(=O)Cc3ccccc3)CC2)n1"
  qual: "="
  pKi: 6.31
- molecule: "Oc1ccc(CCNc2nc(NCCCc3ccccc3)nc(N3CCNCC3)n2)cc1"
  qual: "="
  pKi: 6.70
- molecule: "COc1ccc(C(=O)N2CCN(c3nc(NCCc4ccc(O)cc4)nc(N(C)CCCc4ccc(Cl)cc4)n3)CC2)cc1"
  qual: "="
  pKi: 6.96
- molecule: "Oc1ccc(CCNc2nc(NC/C=C/c3ccccc3)nc(N3CCNCC3)n2)cc1"
  qual: "="
  pKi: 5.38
- molecule: "CCC(=O)CCN1CCN(c2nc(NCCc3ccc(O)cc3)nc(N(C)CCCc3ccc(Cl)cc3)n2)CC1"
  qual: "="
  pKi: 7.40
